experimental_target: T1, human PSMA antigen (R&D SYSTEM, 4234-ZN-010) (human, UniProt Q04609 44-750)
T1 construct: bought antigen
T1 sequence (Q04609 44-750 limits assumed): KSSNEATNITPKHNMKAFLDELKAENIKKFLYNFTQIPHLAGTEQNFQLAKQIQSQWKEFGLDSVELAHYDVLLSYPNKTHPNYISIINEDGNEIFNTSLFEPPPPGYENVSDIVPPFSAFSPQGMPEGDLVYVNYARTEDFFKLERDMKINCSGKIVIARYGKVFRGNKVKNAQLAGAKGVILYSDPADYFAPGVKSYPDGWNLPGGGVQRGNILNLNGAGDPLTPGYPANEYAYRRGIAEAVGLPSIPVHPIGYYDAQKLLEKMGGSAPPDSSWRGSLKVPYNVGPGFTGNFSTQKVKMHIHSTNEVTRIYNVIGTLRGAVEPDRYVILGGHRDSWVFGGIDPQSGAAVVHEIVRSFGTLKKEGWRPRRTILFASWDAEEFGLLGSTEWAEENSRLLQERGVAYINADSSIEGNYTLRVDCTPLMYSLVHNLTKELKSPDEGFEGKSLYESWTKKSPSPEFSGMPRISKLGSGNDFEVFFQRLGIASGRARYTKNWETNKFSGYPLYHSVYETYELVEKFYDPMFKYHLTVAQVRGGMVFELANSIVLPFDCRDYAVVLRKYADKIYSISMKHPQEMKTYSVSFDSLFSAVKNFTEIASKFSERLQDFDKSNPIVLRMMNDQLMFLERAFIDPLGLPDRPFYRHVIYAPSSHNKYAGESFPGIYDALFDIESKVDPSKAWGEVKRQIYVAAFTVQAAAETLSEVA
assay_remarks: ELISA, plate-bound PSMA antigen
measure_name: EC50 (µg/mL)
Answer format: numeric, µg/mL implied, no suffix.

Query: // lookup EC50 for hu2H1L1 (antibody, human IgG1, kappa, V domains shown) VH: EVQLVESGGGLVQPGGSLRLSCAASGFTFSDYYMAWVRQAPGKGLEWVANINFDGSSTYYLDSLKSRFTISRDNAKNSLYLQMNSLRAEDTAVYYCARDLDGYYGYFDVWGQGTTVTVSS VL: EIVLTQSPDFQSVTPKEKVTITCSASSSVSHMYWYQQKPDQSPKLLIYRTSNLASGVPSRFSGSGSGTDFTLTINSLEAEDAATYYCQQYHSYPLMFGQGTKLEIKR
Response: 0.0354
